System tested: HLA-B*44:02
Experimental details: IEDB peptide-MHC binding, purified MHC/competitive/radioactivity; filed as Kd, often an IC50 or EC50 that approximates it; bounds were set here for any values at or beyond the usual limits of such assays
Condition description: source organism: Mammarenavirus brazilense
Readout kind: Kd

Input: Recorded Kd for `PEDQGNPIVL` , please?
Output: ≥ 70.2 µM

###

System tested: HLA-A*30:01
Experimental details: IEDB peptide-MHC binding, purified MHC/competitive/radioactivity; filed as Kd, often an IC50 or EC50 that approximates it; bounds were set here for any values at or beyond the usual limits of such assays
Condition description: source organism: Dengue virus 2 Jamaica/1409/1983
pKd: −log10 of the molar value.
The label depends only on pKd: true (1) if it is at least 7, false (0) if it is smaller.

AGKRSLRPQP : false (0)

Input: Is it the case that `RTRVGTKHA` has pKd reaching or exceeding 7?
Output: true (1)

Input: Is it the case that `ALTLATGPIS` has pKd reaching or exceeding 7?
Output: false (0)

Input: Is it the case that `SILASSLLK` has pKd reaching or exceeding 7?
Output: false (0)
